# Tested on: 282377-053-R-J1-PDC tumor spheroids, viability
# ASSAY_REMARKS: Anticancer human tumor 282377-053-R-J1-PDC patient-derived colon adenocarcinoma cell line growth inhibition [TAK]
# MEASUREMENT_CONDITIONS: second compound 9.49 µM; first compound 0.00316 µM; stronger effect = lower value; spheroids with HUVEC and MSC
As shown below, each of these compounds has a reported viability, T/C value.
QUANTITY_KIND: viability, T/C (%)

- COMPOUND: "COC1CC2CCC(C)C(O)(O2)C(=O)C(=O)N2CCCCC2C(=O)OC(C(C)CC2CCC(OCCO)C(OC)C2)CC(=O)C(C)C=C(C)C(O)C(OC)C(=O)C(C)CC(C)C=CC=CC=C1C (stereo not given) + CC(C)NCC(C(=O)N1CCN(c2ncnc3c2C(C)CC3O)CC1)c1ccc(Cl)cc1"
  REPORTED_VALUE: 73.5
- COMPOUND: "COc1c(OCCCN2CCOCC2)ccc2c3n(c(=NC(=O)c4cnc(N)nc4)nc12)CCN3 + CC(C)NCC(C(=O)N1CCN(c2ncnc3c2C(C)CC3O)CC1)c1ccc(Cl)cc1"
  REPORTED_VALUE: 82.3
- COMPOUND: "CC(C)CC(NC(=O)C(Cc1ccccc1)NC(=O)c1cnccn1)B(O)O (stereo not given) + CC(C)NCC(C(=O)N1CCN(c2ncnc3c2C(C)CC3O)CC1)c1ccc(Cl)cc1"
  REPORTED_VALUE: 78.6
- COMPOUND: "CC(C)n1nc(-c2ccc3oc(N)nc3c2)c2c(N)ncnc21 + CC(C)NCC(C(=O)N1CCN(c2ncnc3c2C(C)CC3O)CC1)c1ccc(Cl)cc1"
  REPORTED_VALUE: 74.7
- COMPOUND: "CC(C)CC(NC(=O)CNC(=O)c1cc(Cl)ccc1Cl)B1OC(=O)CC(CC(=O)O)(C(=O)O)O1 (stereo not given) + CC(C)NCC(C(=O)N1CCN(c2ncnc3c2C(C)CC3O)CC1)c1ccc(Cl)cc1"
  REPORTED_VALUE: 81.7

* * *

In this section we review reported pIC50 values for a set of molecules.
# System: 282377-053-R-J1-PDC tumor spheroids, viability
# ASSAY_REMARKS: Anticancer human tumor 282377-053-R-J1-PDC cell line growth inhibition [TAK];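 note: spheroids exposed to drugs for seven days before readout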
# MEASUREMENT_CONDITIONS: curve of first compound; second compound 9.49 µM; spheroids with HUVEC and MSC
# Protocol: Combinatorial screen of targeted agents with TAK-243 and ipatasertib in multi-cell type tumor spheroids […] Compounds. […] If the clinical Cmax for an agent had not been determined, the highest concentration tested was 10 microM. NCI60 Cell Culture. […] The optimal seeding densities for each of the cell lines at each time point assessed were determined prior to performing the concentration response studies. […]
pIC50: −log10 of the molar value.
QUANTITY_KIND: pIC50

- MOLECULE: "CC(C)CC(NC(=O)C(Cc1ccccc1)NC(=O)c1cnccn1)B(O)O (configuration not stated) + CC(C)NCC(C(=O)N1CCN(c2ncnc3c2C(C)CC3O)CC1)c1ccc(Cl)cc1"
  QUALIFYING_SIGN: "="
  REPORTED_VALUE: 8.12
- MOLECULE: "COc1c(OCCCN2CCOCC2)ccc2c3n(c(=NC(=O)c4cnc(N)nc4)nc12)CCN3 + CC(C)NCC(C(=O)N1CCN(c2ncnc3c2C(C)CC3O)CC1)c1ccc(Cl)cc1"
  QUALIFYING_SIGN: "="
  REPORTED_VALUE: 6.74
- MOLECULE: "CC(C)CC(NC(=O)CNC(=O)c1cc(Cl)ccc1Cl)B1OC(=O)CC(CC(=O)O)(C(=O)O)O1 (configuration not stated) + CC(C)NCC(C(=O)N1CCN(c2ncnc3c2C(C)CC3O)CC1)c1ccc(Cl)cc1"
  QUALIFYING_SIGN: "="
  REPORTED_VALUE: 7.41
- MOLECULE: "CCCS(=O)(=O)Nc1ccc(F)c(C(=O)c2c[nH]c3ncc(-c4ccc(Cl)cc4)cc23)c1F + CC(C)NCC(C(=O)N1CCN(c2ncnc3c2C(C)CC3O)CC1)c1ccc(Cl)cc1"
  QUALIFYING_SIGN: "="
  REPORTED_VALUE: 5.23
- MOLECULE: "COC1CC2CCC(C)C(O)(O2)C(=O)C(=O)N2CCCCC2C(=O)OC(C(C)CC2CCC(OCCO)C(OC)C2)CC(=O)C(C)C=C(C)C(O)C(OC)C(=O)C(C)CC(C)C=CC=CC=C1C (configuration not stated) + CC(C)NCC(C(=O)N1CCN(c2ncnc3c2C(C)CC3O)CC1)c1ccc(Cl)cc1"
  QUALIFYING_SIGN: "<"
  REPORTED_VALUE: 7.00
- MOLECULE: "CC(C)(C)c1nc(-c2cccc(NS(=O)(=O)c3c(F)cccc3F)c2F)c(-c2ccnc(N)n2)s1 + CC(C)NCC(C(=O)N1CCN(c2ncnc3c2C(C)CC3O)CC1)c1ccc(Cl)cc1"
  QUALIFYING_SIGN: "<"
  REPORTED_VALUE: 5.00
- MOLECULE: "Cc1nc(NC(=O)N2CCCC2C(N)=O)sc1-c1ccnc(C(C)(C)C(F)(F)F)c1 (configuration not stated) + CC(C)NCC(C(=O)N1CCN(c2ncnc3c2C(C)CC3O)CC1)c1ccc(Cl)cc1"
  QUALIFYING_SIGN: "<"
  REPORTED_VALUE: 5.00

* * *

# Test system: 282377-053-R-J1-PDC tumor spheroids, viability
# ASSAY_REMARKS: Anticancer human tumor 282377-053-R-J1-PDC cell line growth inhibition [TAK];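 note: spheroids exposed to drugs for seven days before readout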
# MEASUREMENT_CONDITIONS: second compound 30 µM; first compound 1 µM; stronger effect = lower value; spheroids with HUVEC and MSC
Listing: viability, T/C of selected molecules

- MOLECULE: "CCCS(=O)(=O)Nc1ccc(F)c(C(=O)c2c[nH]c3ncc(-c4ccc(Cl)cc4)cc23)c1F + CC(C)NCC(C(=O)N1CCN(c2ncnc3c2C(C)CC3O)CC1)c1ccc(Cl)cc1"
  RESULT_UNITS: "%"
  viability, T/C: 61
- MOLECULE: "Cc1nc(NC(=O)N2CCCC2C(N)=O)sc1-c1ccnc(C(C)(C)C(F)(F)F)c1 (centres undefined) + CC(C)NCC(C(=O)N1CCN(c2ncnc3c2C(C)CC3O)CC1)c1ccc(Cl)cc1"
  RESULT_UNITS: "%"
  viability, T/C: 58
- MOLECULE: "COc1c(OCCCN2CCOCC2)ccc2c3n(c(=NC(=O)c4cnc(N)nc4)nc12)CCN3 + CC(C)NCC(C(=O)N1CCN(c2ncnc3c2C(C)CC3O)CC1)c1ccc(Cl)cc1"
  RESULT_UNITS: "%"
  viability, T/C: 4.24
- MOLECULE: "CC(C)(C)c1nc(-c2cccc(NS(=O)(=O)c3c(F)cccc3F)c2F)c(-c2ccnc(N)n2)s1 + CC(C)NCC(C(=O)N1CCN(c2ncnc3c2C(C)CC3O)CC1)c1ccc(Cl)cc1"
  RESULT_UNITS: "%"
  viability, T/C: 36.1

* * *

# Test system: 282377-053-R-J1-PDC tumor spheroids, viability
# ASSAY_REMARKS: Anticancer human tumor 282377-053-R-J1-PDC cell line growth inhibition [TAK];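 note: spheroids exposed to drugs for seven days before readout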
# MEASUREMENT_CONDITIONS: second compound 3 µM; first compound 1 µM; stronger effect = lower value; spheroids with HUVEC and MSC
# Experimental: Combinatorial screen of targeted agents with TAK-243 and ipatasertib in multi-cell type tumor spheroids […] Compounds. […] If the clinical Cmax for an agent had not been determined, the highest concentration tested was 10 microM. NCI60 Cell Culture. […] The optimal seeding densities for each of the cell lines at each time point assessed were determined prior to performing the concentration response studies. […]
Overview of reported viability, T/C across a group of compounds:
QUANTITY_KIND: viability, T/C

- COMPOUND: "COc1c(OCCCN2CCOCC2)ccc2c3n(c(=NC(=O)c4cnc(N)nc4)nc12)CCN3 + CC(C)NCC(C(=O)N1CCN(c2ncnc3c2C(C)CC3O)CC1)c1ccc(Cl)cc1"
  REPORTED_VALUE: "13.6%"
- COMPOUND: "CC(C)(C)c1nc(-c2cccc(NS(=O)(=O)c3c(F)cccc3F)c2F)c(-c2ccnc(N)n2)s1 + CC(C)NCC(C(=O)N1CCN(c2ncnc3c2C(C)CC3O)CC1)c1ccc(Cl)cc1"
  REPORTED_VALUE: "58.8%"
- COMPOUND: "CCCS(=O)(=O)Nc1ccc(F)c(C(=O)c2c[nH]c3ncc(-c4ccc(Cl)cc4)cc23)c1F + CC(C)NCC(C(=O)N1CCN(c2ncnc3c2C(C)CC3O)CC1)c1ccc(Cl)cc1"
  REPORTED_VALUE: "73.7%"
- COMPOUND: "Cc1nc(NC(=O)N2CCCC2C(N)=O)sc1-c1ccnc(C(C)(C)C(F)(F)F)c1 (centres undefined) + CC(C)NCC(C(=O)N1CCN(c2ncnc3c2C(C)CC3O)CC1)c1ccc(Cl)cc1"
  REPORTED_VALUE: "77.3%"
